# study target: Peroxisome proliferator-activated receptor gamma (Homo sapiens)
# Sequence (P37231 whole entry, the tested form may be a part): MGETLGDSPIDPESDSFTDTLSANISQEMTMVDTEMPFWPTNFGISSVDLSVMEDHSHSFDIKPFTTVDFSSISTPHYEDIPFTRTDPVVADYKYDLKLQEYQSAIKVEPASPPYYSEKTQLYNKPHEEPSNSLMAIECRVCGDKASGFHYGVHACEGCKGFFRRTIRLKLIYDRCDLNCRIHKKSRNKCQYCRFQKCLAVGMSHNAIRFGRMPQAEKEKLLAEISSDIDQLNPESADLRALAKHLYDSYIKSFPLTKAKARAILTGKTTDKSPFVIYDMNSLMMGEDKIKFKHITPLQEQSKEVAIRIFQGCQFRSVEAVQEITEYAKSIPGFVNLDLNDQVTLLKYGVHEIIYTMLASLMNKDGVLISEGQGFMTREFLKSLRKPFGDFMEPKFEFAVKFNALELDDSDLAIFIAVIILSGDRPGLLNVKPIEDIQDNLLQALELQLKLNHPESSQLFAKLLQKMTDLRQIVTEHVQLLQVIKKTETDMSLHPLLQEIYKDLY
# method summary: Transactivation of GAL4-fused human PPARgamma expressed in African green monkey CV1 cells by luciferase reporter gene assay
property label: EC50

- C[C@H](CCCOc1ccccc1Cn1c(C(F)(F)F)cnc1-c1ccc(C(F)(F)F)cc1)CC(=O)O: > 100 µM
- C[C@H](CCCOc1ccccc1Cn1c(C(F)(F)F)cnc1-c1ccc(C#N)cc1)CC(=O)O: > 100 µM

Pending compound:
Q: Entry C[C@H](CCCOc1ccccc1Cn1c(Cl)cnc1-c1ccc(C(F)(F)F)cc1)CC(=O)O : reported EC50 = ?
A: > 100 µM

====

# method summary: AUC (0 to infinity) in CD-1 mouse at 1 mg/kg, iv or 3 mg/kg, po
# Assay type: ADME, organism-based
# experimental setup: in vivo
property label: AUC(0-inf) (ng·h/mL)

1: C[C@H](CCCOc1ccccc1Cn1c(Cl)cnc1-c1ccc(C(F)(F)F)cc1)CC(=O)O
2: C[C@H](CCCOc1ccccc1Cn1c(C(F)(F)F)cnc1-c1ccc(C#N)cc1)CC(=O)O
3: C[C@H](CCCOc1ccccc1Cn1c(C(F)(F)F)cnc1-c1ccc(C(F)(F)F)cc1)CC(=O)O
Q: Kindly order the items shown according to AUC(0-inf), from the highest value down. Show the ranking through the labels, in the order asked for.
A: 2, 3, 1
(2: 14700 ng·h/mL, 3: 6960 ng·h/mL, 1: 3880 ng·h/mL)

====

# study target: Voltage-gated inwardly rectifying potassium channel KCNH2 (Homo sapiens)
# Sequence (Q12809 whole entry): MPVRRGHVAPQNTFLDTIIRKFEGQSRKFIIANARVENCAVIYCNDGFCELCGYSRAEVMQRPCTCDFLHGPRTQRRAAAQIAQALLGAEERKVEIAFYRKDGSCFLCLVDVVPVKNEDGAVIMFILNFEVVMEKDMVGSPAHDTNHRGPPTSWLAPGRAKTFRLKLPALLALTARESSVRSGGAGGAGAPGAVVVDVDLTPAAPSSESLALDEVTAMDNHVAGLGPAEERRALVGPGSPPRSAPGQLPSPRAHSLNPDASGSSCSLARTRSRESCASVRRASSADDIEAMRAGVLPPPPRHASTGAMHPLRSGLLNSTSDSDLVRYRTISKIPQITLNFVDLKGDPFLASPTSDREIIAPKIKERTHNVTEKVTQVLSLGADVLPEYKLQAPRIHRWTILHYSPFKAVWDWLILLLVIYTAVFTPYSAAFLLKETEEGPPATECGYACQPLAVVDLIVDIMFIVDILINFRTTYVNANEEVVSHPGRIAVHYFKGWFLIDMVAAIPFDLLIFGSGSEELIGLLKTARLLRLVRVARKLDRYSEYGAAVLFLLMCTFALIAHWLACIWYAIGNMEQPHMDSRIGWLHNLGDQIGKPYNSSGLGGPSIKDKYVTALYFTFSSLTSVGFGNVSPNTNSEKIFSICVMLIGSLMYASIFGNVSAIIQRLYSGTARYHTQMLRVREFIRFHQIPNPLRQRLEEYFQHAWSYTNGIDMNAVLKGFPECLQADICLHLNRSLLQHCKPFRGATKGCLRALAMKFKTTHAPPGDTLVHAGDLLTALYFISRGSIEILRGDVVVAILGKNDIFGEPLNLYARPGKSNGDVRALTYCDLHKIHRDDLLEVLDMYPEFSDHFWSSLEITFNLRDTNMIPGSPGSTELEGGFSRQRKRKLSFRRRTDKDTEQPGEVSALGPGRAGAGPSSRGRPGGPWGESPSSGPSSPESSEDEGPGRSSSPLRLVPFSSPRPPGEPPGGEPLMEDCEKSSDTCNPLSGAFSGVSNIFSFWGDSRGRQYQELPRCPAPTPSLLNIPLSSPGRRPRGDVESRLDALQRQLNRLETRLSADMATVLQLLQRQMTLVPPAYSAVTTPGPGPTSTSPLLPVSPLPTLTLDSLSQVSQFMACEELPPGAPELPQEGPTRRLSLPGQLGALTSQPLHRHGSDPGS
# method summary: Inhibition of human ERG expressed in HEK293 cells by semi-automatic patch clamp assay
property label: IC50 (µM)
// units = µM; emit number, no label

- Cc1cnc(-c2ccc(OC(F)(F)F)cc2)n1Cc1ccccc1OCCC[C@@H](C)CC(=O)O: 10

Pending molecule:
Q: Entry Cc1cnc(-c2ccc(-c3ccco3)cc2)n1Cc1ccccc1OCCCCCC(=O)O : reported IC50 = ?
A: 5.5
